Catalogue of IC50 readings, one per entry.
measurement_target: HDAC3/NCor2 (Homo sapiens (Human), UniProt O15379)
Sequence (O15379 whole entry): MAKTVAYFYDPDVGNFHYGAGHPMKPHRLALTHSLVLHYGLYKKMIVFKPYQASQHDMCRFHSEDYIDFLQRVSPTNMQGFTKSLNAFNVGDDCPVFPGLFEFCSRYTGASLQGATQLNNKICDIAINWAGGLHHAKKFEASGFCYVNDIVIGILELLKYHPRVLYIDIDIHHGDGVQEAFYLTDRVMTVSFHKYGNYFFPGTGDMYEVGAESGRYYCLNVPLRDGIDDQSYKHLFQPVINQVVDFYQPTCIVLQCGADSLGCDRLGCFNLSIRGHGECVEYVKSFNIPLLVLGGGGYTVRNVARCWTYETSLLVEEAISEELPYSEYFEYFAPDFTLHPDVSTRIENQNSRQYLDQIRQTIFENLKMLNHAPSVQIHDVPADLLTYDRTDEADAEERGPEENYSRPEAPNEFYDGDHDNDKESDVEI
Sequence (Q9Y618 395-489 partner): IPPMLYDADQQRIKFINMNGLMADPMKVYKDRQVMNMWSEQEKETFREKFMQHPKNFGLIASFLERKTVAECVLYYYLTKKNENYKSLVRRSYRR
assay_overview: HDAC3 inhibition, Fluor de Lys fluorescent enzyme assay
test_context: 3 hours pre-incubation at room temp; 1.2 nM enzyme; 16 μM Fluor de Lys substrate; duplicate

compound	measurement_target	IC50
CS(=N)(=O)c1cc2sc(C(=O)Nc3cc(-c4ccc(F)cc4)ccc3N)cc2cn1 (stereo not drawn) [Compound 253]	HDAC3/NCor2 (Homo sapiens (Human), UniProt O15379)	500 to 2000 nM
CC(=O)c1ccc(-c2ccc(N)c(NC(=O)c3ccc(S(C)(=N)=O)cc3)c2)s1 (stereo not drawn) [Compound 241]	HDAC3/NCor2 (Homo sapiens (Human), UniProt O15379)	> 2000 nM
N=S(=O)(c1ccncc1)c1ccc(C(=O)Nc2cc(-c3ccc(F)cc3)ccc2N)cc1 (stereo not drawn) [Compound 168]	HDAC3/NCor2 (Homo sapiens (Human), UniProt O15379)	500 to 2000 nM
N=S(=O)(c1ccc(C(=O)Nc2cc(-c3cccs3)ccc2N)cc1)C1CC1 (stereo not drawn) [Compound 103]	HDAC3/NCor2 (Homo sapiens (Human), UniProt O15379)	500 to 2000 nM
COc1ncc(S(=N)(=O)c2ccc(C(=O)Nc3cc(-c4ccc(F)cc4)ccc3N)cc2)[nH]1 (stereo not drawn) [Compound 252]	HDAC3/NCor2 (Homo sapiens (Human), UniProt O15379)	> 2000 nM
N=S(=O)(c1ccc(C(=O)Nc2cc(-c3ccc(F)cc3)ccc2N)cc1)c1ccccc1F (stereo not drawn) [Compound 197]	HDAC3/NCor2 (Homo sapiens (Human), UniProt O15379)	100 to 500 nM

Source: patent US20250136570A1
